target-desc: Probable G-protein coupled receptor 139 (Homo sapiens, UniProt Q6DWJ6)
Sequence (Q6DWJ6 whole entry): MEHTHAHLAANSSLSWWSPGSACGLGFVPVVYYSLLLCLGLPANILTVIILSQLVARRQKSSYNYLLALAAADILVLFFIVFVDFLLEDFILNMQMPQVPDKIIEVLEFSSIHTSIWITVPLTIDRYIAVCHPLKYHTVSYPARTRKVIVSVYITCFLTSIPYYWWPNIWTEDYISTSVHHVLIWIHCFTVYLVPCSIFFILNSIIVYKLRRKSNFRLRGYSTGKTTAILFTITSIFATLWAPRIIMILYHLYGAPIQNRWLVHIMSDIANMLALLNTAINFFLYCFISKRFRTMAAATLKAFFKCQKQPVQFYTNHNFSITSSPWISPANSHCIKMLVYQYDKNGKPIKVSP
test-details: Agonist activity at human GPR139 expressed in CHO-K1 cells assessed as increase in calcium flux by calcium 5 dye based FLIPR assay
Format: functional, cell-based
pEC50: −log10 of the molar value.
measure: pEC50

The following compounds have reported results that may help.
1. C[C@H](NC(=O)Cn1nc2cc(Cl)cnn2c1=O)c1ccc(Cl)c(F)c1 ... > 9.00
2. COc1cccn2c(=O)n(CC(=O)N[C@@H](C)c3ccc(C)cc3)nc12 ... > 9.00
3. CNc1ccnn2c(=O)n(CC(=O)N[C@@H](C)c3ccc(OC(F)(F)F)cc3)nc12 ... > 9.00
4. CC(NC(=O)Cn1nc2ccccn2c1=O)c1ncc(Cl)cc1F (stereo not given) ... ≤ 7.00
5. Cc1ccc([C@H](C)NC(=O)Cn2nc3ccc(C)cn3c2=O)cc1 ... > 9.00

pEC50 for "COc1ccc2nn(CC(=O)N[C@@H](C)c3ccc(Cl)cc3)c(=O)n2n1" is > 9.00

Sure, the documented pEC50 for "Cc1cc(C)n2c(=O)n(CC(=O)N[C@@H](C)c3ccc(Cl)c(F)c3)nc2n1" is > 9.00

Lab note: measured pEC50 of "C[C@H](NC(=O)Cn1nc2c(C(F)(F)F)ccnn2c1=O)c1ccc(Cl)c(F)c1" was > 9.00

Notebook: "C[C@@H](NC(=O)Cn1nc2ccccn2c1=O)c1ccc(Cl)c(F)c1" , pEC50 read as ≤ 7.00

# pEC50 (compound: "COc1ccn2c(=O)n(CC(=O)N[C@@H](C)c3ccc(C)cc3)nc2c1" ) is > 9.00

Field pEC50 (entry "C[C@H](NC(=O)Cn1nc2c(C3CC3)ccnn2c1=O)c1ccc(Cl)c(F)c1" ) reads > 9.00

---

target-desc: Probable G-protein coupled receptor 139 (Homo sapiens)
Sequence (Q6DWJ6 whole entry): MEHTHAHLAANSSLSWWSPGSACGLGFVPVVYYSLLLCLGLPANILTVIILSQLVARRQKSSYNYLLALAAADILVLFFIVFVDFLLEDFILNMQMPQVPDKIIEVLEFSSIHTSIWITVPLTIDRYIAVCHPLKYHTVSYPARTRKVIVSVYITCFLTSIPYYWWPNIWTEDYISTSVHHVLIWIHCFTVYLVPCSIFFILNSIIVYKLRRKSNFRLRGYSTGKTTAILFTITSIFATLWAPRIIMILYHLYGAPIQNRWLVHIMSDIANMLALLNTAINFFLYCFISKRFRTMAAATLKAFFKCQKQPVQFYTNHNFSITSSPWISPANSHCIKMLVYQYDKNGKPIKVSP
test-details: Agonist activity at human GPR139 expressed in CHO-K1 cells assessed as increase in calcium flux by calcium 5 dye based FLIPR assay
Type: functional, cell-based
measure: EC50

These solved cases illustrate the format of a correct answer.
1. Cc1ccnn2c(=O)n(CC(=O)N[C@@H](C)c3ccc(Cl)c(F)c3)nc12 ... < 1 nM
2. C[C@H](NC(=O)Cn1nc2c(N3CCOCC3)ccnn2c1=O)c1ccc(Cl)c(F)c1 ... < 1 nM
3. C[C@H](NC(=O)Cn1nc2ccc(F)cn2c1=O)c1ccc(Cl)cc1 ... < 1 nM

Measured EC50 for this entry "C[C@H](NC(=O)Cn1nc2c(I)ccnn2c1=O)c1ccc(Cl)c(F)c1" on Probable G-protein coupled receptor 139 (Homo sapiens): < 1 nM

Record CC(C(=O)N[C@@H](C)c1ccc(Cl)c(F)c1)n1nc2ccccn2c1=O (stereo in doubt; form 1) / Probable G-protein coupled receptor 139 (Homo sapiens), EC50 recorded as < 1 nM

Fill in: Probable G-protein coupled receptor 139 (Homo sapiens) EC50 for "CNc1nccn2c(=O)n(CC(=O)N[C@@H](C)c3ccc(Cl)c(F)c3)nc12" = < 1 nM

For the compound "C[C@H](NC(=O)Cn1nc2ncccn2c1=O)c1ccc(C2CC2)cc1" , the measured EC50 on Probable G-protein coupled receptor 139 (Homo sapiens) was ≥ 100 nM
